Would you kindly list z-score of subpopulation abundance for each of these compounds?
System: Saccharomyces cerevisiae BY4741 SeMeCo community
Experiment: z-score of subpopulation abundance vs DMSO median, subpopulation auxotrophic for HU; higher = larger share of this subpopulation than in DMSO controls
Conditions: 10 µM; 24 h; SM minimal medium; subpopulation (auxotrophy): HU
Counter-ions that a name gives are not always drawn.

**Query** Please list z-score of subpopulation abundance recorded for the compound COc1ccc(Cl)cc1C(=O)NCCc1ccc(S(=O)(=O)NC(=O)NC2CCCCC2)cc1 [Glyburide (Glibenclamide)]
**Result** -0.2

**Query** Please list z-score of subpopulation abundance recorded for the compound CCN1CC(CCN2CCOCC2)C(c2ccccc2)(c2ccccc2)C1=O (stereo not drawn) [Doxapram HCl]
**Result** -0.57

**Query** Please list z-score of subpopulation abundance recorded for the compound CN(C)CCC[C@@]1(c2ccc(F)cc2)OCc2cc(C#N)ccc21 [Escitalopram Oxalate]
**Result** -0.95

**Query** Please list z-score of subpopulation abundance recorded for the compound CS(=O)(=O)Nc1ccc([N+](=O)[O-])cc1Oc1ccccc1 [Nimesulide]
**Result** -0.2

**Query** Please list z-score of subpopulation abundance recorded for the compound COc1cc([C@@H]2c3cc4c(cc3[C@@H](O[C@@H]3O[C@@H]5CO[C@@H](c6cccs6)O[C@H]5[C@H](O)[C@H]3O)[C@H]3COC(=O)[C@H]23)OCO4)cc(OC)c1O [Teniposide]
**Result** 1.34

**Query** Please list z-score of subpopulation abundance recorded for the compound CN1CCC(=C2c3ccccc3CCc3sccc32)CC1 [Pizotifen Malate]
**Result** -0.33

**Query** Please list z-score of subpopulation abundance recorded for the compound CC(=O)OCC1=C(C(=O)O)N2C(=O)[C@@H](NC(=O)CSc3ccncc3)[C@H]2SC1 [Cephapirin Benzathine]
**Result** 1.01

**Query** Please list z-score of subpopulation abundance recorded for the compound CN(C)CCC=C1c2ccccc2C=Cc2ccccc21 [Cyclobenzaprine HCl]
**Result** 0.59
